# Tested on: OVCAR-4 ovarian
# Experiment Summary: NCI-60 one-dose screen, 48 h
# Assay Context: 10 µM unless noted
About 83,000 compounds went through this panel and 20% of them were active in at least one assay; those are over-represented in the sample as a whole. Active and inactive are the calls of the source. How the source made its calls: active means growth percent below 10; inactive means the rest.
Give your call using only these classes: active, inactive

Some solved cases for reference:
O=C(Nc1cccc(N=Cc2c(O)ccc3ccccc23)c1)c1ccccc1; inactive
CC(C)N(C(=S)SSC(=S)N(C(C)C)C(C)C)C(C)C; inactive
COC(=O)[C@H](Cc1cn(C)cn1)NC(=O)[C@H](CC(C)C)NC(=O)Nc1cc(C(F)(F)F)cc(C(F)(F)F)c1; active

# evaluate next
What outcome does the record of this test show for O=C(Nc1ccccc1)c1cc2ccccc2s1 ?
inactive

---

# System: A549/ATCC NSCLC
# Experiment Summary: NCI-60 one-dose screen, 48 h (100 = growth as untreated, 0 = no growth, -100 = all killed)
# Assay Context: 10 µM unless noted
About 83,000 compounds went through this panel and 20% of them were active in at least one assay; those are over-represented in the sample as a whole.
Quantity: growth (%)
Give the number; % is assumed, so skip it.

Take a look at these entries with their results.
O=C(c1ccc(OCCN2CCCCC2)cc1)c1c(-c2ccc(O)cc2)sc2cc(O)ccc12; 91.6
COC(=O)CSc1ccc(Cl)cc1; 98
CCCCCCCCCCCC1=NC(C)(C)CN1CC(C)O (centres undefined); 85.4
CCNC(=O)c1ccc2c(c1)nc(-c1ccc(Cl)cc1)n2-c1cc(C(C)(C)C)[nH]n1; 48.6
CCCCOc1nc2ccccc2cc1/C=C/c1cc(/C=C/c2cc3ccccc3nc2OCCCC)n(-c2ccccc2)n1; 102
C=C(C)[C@@H]1CC[C@]2(C(=O)NC(COC(=O)C(Cl)Cl)(COC(=O)C(Cl)Cl)COC(=O)C(Cl)Cl)CC[C@]3(C)[C@H](CC[C@@H]4[C@@]5(C)CC[C@H](OC(C)=O)C(C)(C)[C@@H]5CC[C@]43C)[C@@H]12; 27.7

Query: growth; subject: Cc1nn(-c2ccccc2)c2nc3c(nc12)C1=NCCN1C(c1ccc(Cl)cc1)N3 (centres undefined)
88.9

Query: growth; subject: CS(=O)(=O)c1ccc(C(=O)N/N=C/c2ccccc2Cl)cc1
78.4

Query: growth; subject: CCOC(=O)C1OC2(CCCC2)OC1C(=O)OCC (centres undefined)
102

---

# Tested on: SNB-19 CNS
# Experiment Summary: NCI-60 one-dose screen, 48 h (100 = growth as untreated, 0 = no growth, -100 = all killed)
# Assay Context: 10 µM unless noted
About 83,000 compounds went through this panel and 20% of them were active in at least one assay; those are over-represented in the sample as a whole.
Examples of molecules with documented growth follow.
Give the number; % is assumed, so skip it.

Take a look at these entries with their results.
O=[N+]([O-])c1ccc(SSc2ccc([N+](=O)[O-])cc2Cl)c(Cl)c1; 99.5
CCCCCCCCCCCCCCCC1=NCCN1; 24.8
COc1ccc(C(=O)OC2C(OC3C(O)COC(O[C@H]4C[C@H]5[C@@H]6CC=C7C[C@@H](O)CC[C@]7(C)[C@H]6CC[C@]5(C)[C@H]4[C@H](C)C(=O)CCC(C)C)C3OC(C)=O)OCC(O)C2O)cc1 (stereo partly specified); -22.8
CCN(CC)c1ccc(/C=C2/NC(=O)NC2=O)cc1; 61.1
CCCCOc1nc2ccc(C)cc2cc1/C=C/C(=O)/C=C(O)/C=C/c1cc2cc(C)ccc2nc1OCCCC; 96.2

We next turn to a different molecule, shown below.
Query: growth; subject: C=CCOc1ccc2c(C)cc(=O)oc2c1
122
